System: Notch 3
method: Notch-CBF1 Transactivation Assay (Notch 3)
Assay type: cell-based
study conditions: HeLa cells, luciferase, rounded to 2 digits, read-out: Notch 3 (IC50)
pIC50 reference
Lab note: report pIC50 as minus log10 of the concentration in molar units, number only.

Here are 3 compounds together with their reported answers.
compound structure: [2H]C([2H])([2H])N1C(=O)[C@@H](NC(=O)[C@H](CCC(F)(F)F)[C@H](CCC(F)(F)F)C(N)=O)N=C(c2ccccc2)c2ccccc21
quantity kind: pIC50
experimental result: 8.23
//
compound structure: COc1ccc2c(c1)NC(=O)[C@@H](NC(=O)[C@H](CCC(F)(F)F)[C@H](CCC(F)(F)F)C(N)=O)N=C2c1ccccc1
quantity kind: pIC50
experimental result: 8.42
//
compound structure: COc1ccc2c(c1)C(c1ccccc1)=N[C@H](NC(=O)[C@H](CCC(F)(F)F)[C@H](CCC(F)(F)F)C(N)=O)C(=O)N2
quantity kind: pIC50
experimental result: 7.89

Ask | Given the entry COc1ccc2c(c1)N(C)C(=O)[C@@H](NC(=O)[C@H](CCC(F)(F)F)[C@H](CCC(F)(F)F)C(N)=O)N=C2c1ccccc1 , report its measured pIC50.
Reply | 8.55

Ask | Can you check CN1C(=O)[C@@H](NC(=O)[C@H](CCC(F)(F)F)[C@H](CCC(F)(F)F)C(N)=O)N=C(c2ccccc2)c2ccccc21 next?
Reply | 8.47
